target: hMC3-R (human); experiment: competition with [125I]-NDP-α-MSH, CHO-K1 membranes
Provide the recorded log10 of Ki for the entries that follow.
// units: µM (pre-log); metric: Ki; scale: log10

Need log10 of Ki, item Ac-Cha-c(Asp-His-D-2-Nal-Arg-Trp-Gaba-Lys)-NH2 (peptide)
-2.40

How about Ac-Nle-c(Cys-3-Pal-D-Phe-Arg-Trp-Gaba-Cys)-NH2 (peptide) ?
-0.82

Also Ac-D-Arg-c(Cys-D-Ala-His-D-Phe-Arg-Trp-Pen)-NH2 (peptide) ?
-1.88

Subsequent entry: Ac-Nle-c(Cys-D-Ala-His-D-2-Nal-Arg-Bal-Cys)-NH2 (peptide)
-1.90

Continue with Ac-hPhe-c(Asp-His-D-2-Nal-Arg-Trp-Gaba-Lys)-NH2 (peptide)
-2.61

----------
target: hMC1-R (human); assay: cell-based or functional assay
recordedEndpoint: cAMP EC50 (nM)
# number only, unit nM dropped from output

Request - read-out cAMP EC50 | tested on hMC1-R (human) | substance Hydantoin(C(O)-(Nle-Gly))-c(Cys-D-Ala-His-D-Phe-Arg-Trp-Pen)-NH2 (peptide; unit assumed)
17

Note, next up: Hydantoin(C(O)-(Arg-Gly))-c(Cys-D-Ala-His-D-Phe-Arg-Trp-Cys)-NH2 (peptide; unit assumed)
8.81

Next up: Hydantoin(C(O)-(D-Arg-Gly))-c(Cys-D-Ala-His-D-Phe-Arg-Trp-Cys)-NH2 (peptide; unit assumed)
11.5

----------
target: hMC3-R (human); assay: cell-based or functional assay
Record form. Attribute: log10 of cAMP EC50. Fill in for each entry.
The common logarithm of cAMP EC50 in nM is what is listed.

Query log10 of cAMP EC50 on hMC3-R (human) for Hydantoin(C(O)-(Val-Nle))-c(Cys-D-Ala-His-D-Phe-Arg-Trp-Cys)-NH2 (peptide; unit assumed)
0.66

Do the same for Ac-Cha-c(Asp-His-D-Phe-Arg-Trp-Gaba-Lys)-NH2 (peptide; unit assumed) please
-0.72

Try Hydantoin(C(O)-(D-Arg-Gly))-c(Cys-Glu-His-D-Phe-Arg-Trp-Cys)-NH2 (peptide; unit assumed) next.
1.23

Param item: Ac-Arg-c(Asp-His-D-Phe-Arg-Trp-Ala-Lys)-NH2 (peptide; unit assumed)
0.46

# iterate: Ac-Arg-c(Cys-D-Ala-His-D-Phe-Arg-Trp-Pen)-NH2 (peptide; unit assumed)
1.12

Try the substance Ac-1-Nal-Arg-c(Cys-D-Ala-His-D-Phe-Arg-Trp-Cys)-NH2 (peptide; unit assumed)
0.62

Try this substance next: Hydantoin(C(O)-(D-Ala-Nle))-c(Cys-D-Ala-His-D-Phe-Arg-Trp-Cys)-NH2 (peptide; unit assumed)
0.41

Repeat for the following substance: Hydantoin(C(O)-(Gly-Arg))-c(Cys-Glu-His-D-Phe-Arg-Trp-Cys)-NH2 (peptide; unit assumed)
0.56

Also, Hydantoin(C(O)-(Arg-Gly))-c(Cys-D-Ala-His-D-Phe-Arg-Trp-Cys)-NH2 (peptide; unit assumed) please.
1.26

Now consider c[Hydantoin(C(O)-(Ile-Cys))-D-Ala-His-D-Phe-Arg-Trp-Cys]-NH2 (peptide; unit assumed) .
0.93

Further, for Hydantoin(C(O)-(Gly-D-Arg))-c(Cys-Glu-His-D-Phe-Arg-Trp-Cys)-NH2 (peptide; unit assumed) ?
1.01

Repeat with Hydantoin(C(O)-(D-Arg-Gly))-c(Cys-D-Ala-His-D-Phe-Arg-Trp-Cys)-NH2 (peptide; unit assumed)
1.37

Another substance: Hydantoin(C(O)-(Gly-Arg))-c(Cys-D-Ala-His-D-Phe-Arg-Trp-Cys)-NH2 (peptide; unit assumed)
0.71

Same lookup for Ac-Nle-c(Cys-D-Ala-His-D-Phe-Arg-Trp-Cys)-NH2 (peptide; unit assumed) , please.
-0.48

Try this substance next: Ac-Nle-c(Asp-His-D-Phe-Arg-Trp-Gaba-Lys)-NH2 (peptide; unit assumed)
-0.20

Next up: Ac-hCha-c(Asp-His-D-Phe-Arg-Trp-Gaba-Lys)-NH2 (peptide; unit assumed)
0.52

Also Hydantoin(C(O)-(Arg-Gly))-c(Cys-Glu-His-D-Phe-Arg-Trp-Cys)-NH2 (peptide; unit assumed) ?
0.90

Please answer likewise for c[Hydantoin(C(O)-(Glu-D-Ala))-His-D-Phe-Arg-Trp-Lys]-NH2 (peptide; unit assumed)
1.35

Next up: Ac-D-Arg-c(Cys-D-Ala-His-D-Phe-Arg-Trp-Pen)-NH2 (peptide; unit assumed)
1.02

Now consider Ac-D-Arg-c(Asp-His-D-Phe-Arg-Trp-Ala-Lys)-NH2 (peptide; unit assumed) .
0.76

Repeat with Ac-Nle-c(Pen-D-Ala-His-D-Phe-Arg-Trp-Cys)-NH2 (peptide; unit assumed)
0.28

Queued: Ac-Nle-c(Asp-His-D-Phe-Arg-Trp-β-Ala-Lys)-NH2 (peptide; unit assumed)
-0.84

Same again, this time with Ac-Tyr-Arg-c(Cys-D-Ala-His-D-Phe-Arg-Trp-Cys)-NH2 (peptide; unit assumed)
0.38

Here is the next substance: Hydantoin(C(O)-(Gly-D-Arg))-c(Cys-D-Ala-His-D-Phe-Arg-Trp-Cys)-NH2 (peptide; unit assumed)
1.06

Now try Hydantoin(C(O)-(Ala-Gly))-c(Cys-D-Ala-His-D-Phe-Arg-Trp-Cys)-NH2 (peptide; unit assumed) .
0.35

Follow-up item: Hydantoin(C(O)-(Gly-Gly))-c(Cys-D-Ala-His-D-Phe-Arg-Trp-Cys)-NH2 (peptide; unit assumed)
0.39

Another substance: Ac-2-Nal-Arg-c(Cys-D-Ala-His-D-Phe-Arg-Trp-Cys)-NH2 (peptide; unit assumed)
0.79

Next substance up: Hydantoin(C(O)-(Nle-Gly))-c(Cys-Glu-His-D-Phe-Arg-Trp-Cys)-NH2 (peptide; unit assumed)
1.09

Input Hydantoin(C(O)-(Gly-Gly))-c(Cys-Glu-His-D-Phe-Arg-Trp-Cys)-NH2 (peptide; unit assumed)
0.91

Same again, this time with Hydantoin(C(O)-(D-Ala-Gly))-c(Cys-D-Ala-His-D-Phe-Arg-Trp-Cys)-NH2 (peptide; unit assumed)
0.35

----------
Can you tell me cAMP EC50 for the items I'm about to list?
target: hMC5-R (human); experiment: cell-based or functional assay
Bridge positions count the residues as written; N and C are the ends. Square brackets hold non-standard residues; d marks the D form. 2Nal = N[C@@H](Cc1ccc2ccccc2c1)C(=O)O; d2Nal = N[C@H](Cc1ccc2ccccc2c1)C(=O)O
Entry rule: numbers only, all in µM.

Entry Ac-Nle-c(Cys-D-Ala-His-D-Phe-Arg-Trp-Cys)-NH2 (peptide; unit assumed) : reported cAMP EC50 = ?
0.42

Further, for Hydantoin(C(O)-(Gly-D-Arg))-c(Cys-Glu-His-D-Phe-Arg-Trp-Cys)-NH2 (peptide) ?
7.44

# iterate: Hydantoin(C(O)-(D-Arg-Gly))-c(Cys-D-Ala-His-D-Phe-Arg-Trp-Cys)-NH2 (peptide)
3.95

// next record Ac-Arg-c(Cys-D-Ala-His-D-2-Nal-Arg-Trp-Cys)-NH2 (peptide; unit assumed)
1.11

Then Ac-CEH[d2Nal]R[2Nal]ACPPKD-NH2 (disulfide 1-8) ?
0.0669

Moving on to the next substance: Hydantoin(C(O)-(Ala-Gly))-c(Cys-D-Ala-His-D-Phe-Arg-Trp-Cys)-NH2 (peptide)
0.516

Repeat for the following substance: Ac-Arg-c(Cys-D-Ala-His-D-Phe-Arg-Trp-Cys)-NH2 (peptide; unit assumed)
1.63

Then Ac-Cha-c(Asp-His-D-Phe-Arg-Trp-Gaba-Lys)-NH2 (peptide; unit assumed) ?
0.0302

Next substance up: Ac-hCha-c(Asp-His-D-Phe-Arg-Trp-Gaba-Lys)-NH2 (peptide; unit assumed)
0.415

Can you handle Ac-2-Nal-Arg-c(Cys-D-Ala-His-D-Phe-Arg-Trp-Cys)-NH2 (peptide; unit assumed) next?
1.73

Record: Hydantoin(C(O)-(Arg-Gly))-c(Cys-D-Ala-His-D-Phe-Arg-Trp-Cys)-NH2 (peptide)
3.56

Please do the same for Hydantoin(C(O)-(Gly-Arg))-c(Cys-Glu-His-D-Phe-Arg-Trp-Cys)-NH2 (peptide) as well.
0.335

Cool, now Ac-Cha-c(Asp-His-D-2-Nal-Arg-Trp-Gaba-Lys)-NH2 (peptide; unit assumed)
0.000736

Param item: Hydantoin(C(O)-(D-Arg-Gly))-c(Cys-Glu-His-D-Phe-Arg-Trp-Cys)-NH2 (peptide)
2.71

Okay, and Hydantoin(C(O)-(Arg-Gly))-c(Cys-Glu-His-D-Phe-Arg-Trp-Cys)-NH2 (peptide) ?
4.01

What do you get for Ac-Nle-c(Asp-His-D-Phe-Arg-Trp-Gaba-Lys)-NH2 (peptide; unit assumed) ?
0.00348

Same thing, different substance: Hydantoin(C(O)-(D-Ala-Gly))-c(Cys-D-Ala-His-D-Phe-Arg-Trp-Cys)-NH2 (peptide)
0.355

// repeat for Hydantoin(C(O)-(Gly-D-Arg))-c(Cys-D-Ala-His-D-Phe-Arg-Trp-Cys)-NH2 (peptide) and report
9.84

Repeat for the following substance: Ac-Nle-c(Cys-D-Ala-His-D-2-Nal-Arg-Trp-Cys)-NH2 (peptide; unit assumed)
0.0118

Record: Hydantoin(C(O)-(Nle-Gly))-c(Cys-D-Ala-His-D-Phe-Arg-Trp-Pen)-NH2 (peptide)
0.352

Would you mind doing Ac-D-Arg-c(Asp-His-D-Phe-Arg-Trp-Ala-Lys)-NH2 (peptide; unit assumed) as well?
0.297

One more substance: Ac-hPhe-c(Asp-His-D-2-Nal-Arg-Trp-Gaba-Lys)-NH2 (peptide; unit assumed)
0.000307
